System: COLO 205 colon
METHOD: NCI-60 one-dose screen, 48 h
ASSAY_SETUP: 10 µM unless noted
About 83,000 compounds went through this panel and 20% of them were active in at least one assay; those are over-represented in the sample as a whole. Active and inactive are the calls of the source. How the source made its calls: active means growth percent below 10; inactive means the rest.
Classes used: t (active), f (inactive)

compound="NC(=S)N/N=C(/CCN1CCCC1)CC(C1=C(O)C2=CCCCC2OC1=O)c1ccccc1 (stereo not drawn)" class_assignment=f
compound=Clc1ccc(-c2nc3ccccc3s2)cc1Cl class_assignment=f
compound="C=C1CCC2C(C)(CO)C(O)CCC2(C)C1C/C=C1/C(=O)OCC1O/C=C/c1ccccc1 (stereo not drawn)" class_assignment=f
compound=Cc1cc(C2(c3cc(C)c(O)cc3C)OS(=O)(=O)c3ccccc32)c(C)cc1O class_assignment=f
compound=C1=Cc2ccccc2N(c2nnc(-c3ccccc3)o2)c2ccccc21 class_assignment=f
compound=O=C1C(Cl)=C(Nc2ccccn2)C(=O)c2ccccc21 class_assignment=f
compound=COc1ccc(C2=C(c3cc(OC)c(OC)c(OC)c3)C(=O)CC2)cc1 class_assignment=t
compound=COc1ccc(-c2nc(N3CCCC3=O)sc2Br)cc1OC class_assignment=f
compound=CNC(=S)NNC(=O)C1CC1 class_assignment=f
compound=COc1ccc(NC(=O)CSc2nc(-c3ccc(OC)c(OC)c3)cc(-c3cc(OC)c(OC)c(OC)c3)n2)cc1 class_assignment=f
compound=O=C(/C=C\c1cccc([N+](=O)[O-])c1)/C=C/c1cccc([N+](=O)[O-])c1 class_assignment=f
compound="CC(C)CC1NC(C)(C)CO1 (stereo not drawn)" class_assignment=f
compound=CCCOC(=O)n1cccc1 class_assignment=f
compound=CCCC(=O)Oc1ccc(/C(=C(\C)c2ccccc2)c2ccc(OCCN(CC)CC)cc2)cc1 class_assignment=f
compound=C=C(C)[C@@H]1C[C@@H]2Cc3cc(F)ccc3N1O2 class_assignment=f
compound=c1coc(CNc2ccnc(Nc3ccc(OCCN4CCCCC4)cc3)n2)c1 class_assignment=f
compound=COc1cc(/C(C#N)=C/c2ccc3c(c2OC)OCO3)cc2c1OCO2 class_assignment=t
compound=FC(F)(F)c1ccccc1-c1cn2c(ccc3ccccc32)n1 class_assignment=f
compound="COc1ccc(/C=C2/C(=O)NC(SCC(=O)N3CCN(c4cc5c(cc4F)c(=O)c(C(=O)O)cn5C4CC4)CC3)=NC2N)cc1OC (stereo not drawn)" class_assignment=f
compound=COc1cc(-c2ncn(/C=C\C(=O)OC(C)C)n2)cc(C(F)(F)F)c1 class_assignment=t
compound=CC(C)(C)n1cc(-c2ccnc(NCCNS(=O)(=O)c3ccc(C(F)(F)F)cc3)c2)c(-c2cccc(O)c2)n1 class_assignment=t
compound=COc1ccc(/C=C2\N=C(c3ccccc3)N(C(=O)c3ccccc3O)NC2=O)cc1 class_assignment=f
compound=COc1cccc(/C=C2\Oc3cc(OCCCN4CCCC4)ccc3C2=O)c1 class_assignment=f
compound="CCCCCCCCCCCCCCCCCCNC(=O)[C@H]1CSC(c2cccs2)N1 (stereo partly drawn)" class_assignment=f
compound=CC(C)CSc1nc(NN)c(C#N)c(-c2ccccc2)n1 class_assignment=f
compound=Clc1cccc(-c2cc(-c3ccc4c(c3)OCCO4)[nH]n2)c1 class_assignment=f
compound=COc1cccc(-c2nc3sccn3c2-c2ccnc(NCCCNS(=O)(=O)c3ccc(F)cc3)c2)c1 class_assignment=f
compound="O=C1Nc2ccc(Cl)cc2C12Nc1cc(Cl)ccc1S2 (stereo not drawn)" class_assignment=f
compound="Cc1csc(NC(c2ccccc2)c2c(C)nc3ccccn23)n1 (stereo not drawn)" class_assignment=f
compound="COc1cc(C2NN=C3c4ccccc4CCC32)cc(OC)c1OC (stereo not drawn)" class_assignment=f
compound=CCN(CC)CCCNc1nccc2ccc(Cl)cc12 class_assignment=f
compound=Nc1nc(=O)c2ccccc2s1 class_assignment=f
compound=COc1cc2c(cc1O)CCN1C[C@@H](CC(C)C)[C@@H](O)C[C@@H]21 class_assignment=f
compound="C=C1CCC2C(C)(CO)C(O)CCC2(C)C1CC(NCc1ccccc1)C1=CCOC1=O (stereo not drawn)" class_assignment=f
compound=CCCCN(CCCC)C(=N)c1ccnc2ccccc12 class_assignment=f
compound=Cc1c(C(=O)/C=C/c2csc3ccccc23)[n+](=O)c2ccccc2n1[O-] class_assignment=f
compound=C=C1c2nc3ccccc3n2C=C(c2ccc(Cl)cc2)N1Cc1ccccc1 class_assignment=f
compound=COc1ccc(C(=O)N2NC(=O)/C(=C/c3cn(-c4ccccc4)nc3-c3ccccc3)N=C2c2ccccc2)cc1 class_assignment=f
compound="CC1CCC(C)N(C)C1 (stereo not drawn)" class_assignment=f
compound=C=C1C(=O)O[C@H]2[C@H]1CC/C(Cn1cc(CNC(=O)c3cc4ccccc4[nH]3)nn1)=C\CC[C@@]1(C)O[C@@H]21 class_assignment=t
compound=O=C(Nc1cccc(-n2cc(-c3ccncc3)c(-c3ccc(Cl)c(O)c3)n2)c1)Nc1cccc(C(F)(F)F)c1 class_assignment=f
compound=CCOC(=O)/C(C#N)=C1/C(=O)Nc2ccccc21 class_assignment=f
compound=c1ccc(-c2nnc(-c3ccccn3)s2)nc1 class_assignment=f

---

Tested on: UACC-62 melanoma
METHOD: NCI-60 one-dose screen, 48 h (100 = growth as untreated, 0 = no growth, -100 = all killed)
ASSAY_SETUP: 10 µM unless noted
This is part of a sample that, as a whole, favours compounds with a hit. Of some 83,000 tested, about 20% had one in any assay.
ASSAY_READOUT: growth (%)

compound=COc1ccc(-c2c(N)n[nH]c2-c2cc(OC)c3c(c2)OCCO3)cc1 test_system="UACC-62 melanoma" assay_readout=growth measured_number=71
compound=NNc1cccc(/C=C/c2ccccc2)cc1=O test_system="UACC-62 melanoma" assay_readout=growth measured_number=54.5
compound=COc1ccc(/C=C\c2cc(OC)c(OC)c(OC)c2)cc1OC(=O)c1cccc(Cn2cc(CCOC(=O)c3cccc(Cn4nnc5c4C(=O)c4ccccc4C5=O)c3)nn2)c1 test_system="UACC-62 melanoma" assay_readout=growth measured_number=45.7
compound=COc1cc(C(=O)/C=C/c2ccc3nc(-c4cc(F)cc(F)c4)sc3c2)cc(OC)c1OC test_system="UACC-62 melanoma" assay_readout=growth measured_number=95.6
compound="CC1CN(c2oc(-c3ccccc3)nc2C#N)CC(C)O1 (centres undefined)" test_system="UACC-62 melanoma" assay_readout=growth measured_number=97
compound=COc1ccc(Nc2nn3c(-c4ccccc4)cc(-c4ccccc4)nc3c2C(N)=O)c(OC)c1 test_system="UACC-62 melanoma" assay_readout=growth measured_number=40.7
compound=CCOC(=O)c1ccc2c(c1)nc(-c1ccc(OCc3ccccc3)c(OC)c1)n2-c1cc(C(C)(C)C)[nH]n1 test_system="UACC-62 melanoma" assay_readout=growth measured_number=84.3
compound=CCCCN(CCCC)C(=N)c1ccnc2ccccc12 test_system="UACC-62 melanoma" assay_readout=growth measured_number=111
compound=Cc1ccc(S(=O)(=O)NCCNc2nccc(-c3c(-c4ccc(O)cc4)nc4sccn34)n2)cc1 test_system="UACC-62 melanoma" assay_readout=growth measured_number=91.4

---

Test system: BT-549 breast
METHOD: NCI-60 one-dose screen, 48 h (100 = growth as untreated, 0 = no growth, -100 = all killed)
ASSAY_SETUP: 10 µM unless noted
About 83,000 compounds went through this panel and 20% of them were active in at least one assay; those are over-represented in the sample as a whole. Activity calls are given as the source filed them. The calls were made as follows: active = growth percent below 10; inactive = the rest.
Quick reference for growth among some compounds
ASSAY_READOUT: growth

compound="O=C(CSC1CCc2ccccc21)N/N=C/c1ccccc1O (centres undefined)" assay_readout=growth result="68.9% (inactive)"
compound=Cc1ccc(Cc2c(C=O)nc(N)[nH]c2=O)c2ccccc12 assay_readout=growth result="87.9% (inactive)"
compound=Fc1ccc(Nc2ncnc3ccc(-c4cnc5[nH]ccc5c4)cc23)cc1Cl assay_readout=growth result="20.3% (inactive)"
compound="CN(CCCCCl)P(=O)(OCc1ccc([N+](=O)[O-])o1)C(F)(F)C[C@H](NC(=O)CNC(=O)c1ccc(N=[N+]=[N-])cc1)C(=O)NCCc1ccc(O)cc1 (some centres undefined)" assay_readout=growth result="79% (inactive)"
compound=COc1ccc(-c2cnnn2-c2nonc2-n2cccc2)cc1OC assay_readout=growth result="60.1% (inactive)"
compound=Cc1ccc(S(=O)(=O)/C(=C\c2ccc(Cl)cc2)C(=O)c2ccccc2)cc1 assay_readout=growth result="102% (inactive)"
compound=CCOC(=O)c1c(/N=C2\SC(=O)/C(=C\C(=O)OC)N2NC)sc2c1CCN(C(=O)OCC)C2 assay_readout=growth result="91.7% (inactive)"
compound=O=C1/C(=C/c2ccc([N+](=O)[O-])cc2)CN(C(=O)CCN2CCC(=NO)CC2)C/C1=C\c1ccc([N+](=O)[O-])cc1 assay_readout=growth result="-40.7% (active)"
compound=COc1ccc(-c2nc(/C=C3/C(=O)Nc4ccc(F)cc43)c3ccccn23)cc1 assay_readout=growth result="104% (inactive)"
